system: T1, human SIRP-α v2 D1 domain (human)
T1 construct: also called human v2
T1 sequence (chain, as listed by the source limits assumed): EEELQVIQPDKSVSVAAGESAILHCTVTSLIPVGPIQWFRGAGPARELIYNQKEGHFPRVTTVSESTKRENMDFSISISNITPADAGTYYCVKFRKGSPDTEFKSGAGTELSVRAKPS
experiment_summary: SPR, Langmuir fit
koff listing for selected binders.
Output spec: scalar in s⁻¹, unitless text.

binder	koff / s⁻¹
S74 (scFv, V domains shown, also called clone 74) VH: DVQLVESGGGVVRPGESLRLSCAASGFTFSSNAMSWVRQAPGKGLEWLAGISAGDSDTYYPASVKGRFTISRDNPKNTLYLQMNTLTAEDTAVYYCARETWNHLFDYWGLGTLVTVSS VL: ALTQPASVSANPGETVKIACSGGSYYSYYYGWYQQKSPGSALVTVIYSDDKRPSGIPSRFSGSASGSTATLTITGVRAEDEAVYYCGGYDYSSYTNDFGAGTTLTVL	0.000278

Ask: Tell me the measured koff of S23 (scFv, V domains shown, also called clone 23) VH: DVQLVESGGGVVRPGESLRLSCAASGFTFSSHAMSWVRQAPGKGLEWLAGISAGGSDTYYIDSVKGRFTISRDNSKSSLYLRMNSLTAEDTAVYYCARETWNHLFDYWGLGTLVTVSS VL: ALTQPASVSANPGETVKITCSGGDYYSTYYAWYQQKSPGSAPVTVIHSDDERPSDIPSRFSGSASGSAATLIITGVRVEDEAVYFCGGYDGRTYINTFGAGTTLTVL , please.
Reply: 0.000135

Ask: Tell me the measured koff of S56 (scFv, V domains shown, also called clone 56) VH: DVQLVESGGGVVRPGESLRLSCAASGFTFSSYAMSWVRQAPGKGLEWLAGISAGGSDTYYIDSVKGRFTISRDNSKNSLYLQVNSLTAEDTAVYYCARETWNHLFDYWGLGTLVTVSS VL: ALTQPASVSANPGETVKITCSGGGYYSTYYGWYQQKSPGSAPVTVIHSDDKRPSDIPSRFSGSASGSAATLTITGVRVEDEAVYYCAGYDGRTYINTFGAGTTLTVL , please.
Reply: 0.000286
